procedure details: chemical genetic growth profiling, strain panel (AID 1159580);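 note: tested at 20 µM; growth read once vehicle control cultures reached saturation at 30 °C; 1 = growth at the plate median or of vehicle wells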
details: S. cerevisiae deletion strains, growth OD, locus YML016C, strain PPZ1, stronger effect = lower value
Among all 5,500 compounds or so, about 2,000 (36%) were called active. Another 18% or so got no clear call; they are omitted. The list shows a part of the results.
Provide the reported normalized growth of each item.
Keep it simple and answer with nothing but the number.

## Task I am curious: what normalized growth value has been reported for `CN(C)CCN(Cc1ccccc1)c1ccccn1` ?
## Result 1.01

## Task Given `O=C(O)CCCc1ccccc1` , state its recorded normalized growth.
## Result 1.01

## Task Item O=C1CCC(N2C(=O)c3ccccc3C2=O)C(=O)N1 (centres undefined) has what recorded normalized growth?
## Result 1.01

## Task Look up normalized growth for this compound: CC(=O)S[C@@H]1CC2=CC(=O)CC[C@]2(C)[C@H]2CC[C@@]3(C)[C@@H](CC[C@@]34CCC(=O)O4)C12 (some centres undefined)
## Result 1

## Task Fill in the blank: the reported normalized growth of NCCC(O)C(=O)NC1CC(N)C(OC2OC(CN)C(O)C(O)C2N)C(OC2OC(CO)C(O)C2O)C1O (centres undefined) is ____.
## Result 0.991

## Task Given the compound CC(C)NCC(O)COc1cccc2[nH]ccc12 (centres undefined) , what is its reported normalized growth?
## Result 0.995

## Task Query (compound): `O=c1c(-c2ccc(O)cc2)coc2cc(O)ccc12` ; field requested: normalized growth
## Result 1.02

## Task // lookup normalized growth for O=C(OCC(O)CO)c1ccccc1Nc1ccnc2cc(Cl)ccc12 (centres undefined)
## Result 0.999

## Task Can you share its normalized growth? I mean this compound: `COc1ccc(-c2coc3cc(O)ccc3c2=O)c(OC)c1O`
## Result 0.993

###

procedure details: chemical genetic growth profiling, strain panel (AID 1159580)
details: S. cerevisiae deletion strains, growth OD, locus YHR079C, strain IRE1, stronger effect = lower value
Among all 5,500 compounds or so, about 2,000 (36%) were called active. Not shown: some 18% with an inconclusive outcome. This is one part of the list.
attribute measured: normalized growth
Number only, no unit.

## Task Given the molecule `C[C@H]1COc2c(N3CCN(C)CC3)c(F)cc3c(=O)c(C(=O)O)cn1c23` , what is its reported normalized growth?
## Result 0.991

## Task Reported normalized growth, molecule COC(=O)C[C@H]1C2(C)CC34OC5(C)O[C@@]6([C@H](OC)C(OC(=O)C(C)C)[C@]7(C)C(/C(=C(/OC)C(C)C)C(=O)O[C@H]7c7ccoc7)[C@@]6(O5)[C@H](OC)[C@@]3(OC)C2OC(C)=O)[C@]14C (stereo partly drawn) : ____
## Result 1

## Task Need normalized growth, item `Nc1nc(=S)c2[nH]cnc2[nH]1`
## Result 0.998

###

procedure details: chemical genetic growth profiling, strain panel (AID 1159580);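 note: tested at 20 µM; growth read once vehicle control cultures reached saturation at 30 °C; 1 = growth at the plate median or of vehicle wells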
details: S. cerevisiae deletion strains, growth OD, locus YKR026C, strain gcn3, stronger effect = lower value
Hit rate of the full screen: of about 5,500 compounds, about 2,000 (36%) were called active. Not shown: some 18% with an inconclusive outcome. This is one part of the list.
Kindly apply the following: true (1) if normalized growth is less than 1, false (0) in every other case.

## Task Given the entry `CCCc1cc(C(N)=S)ccn1` , would its reported normalized growth be below 1?
## Result true (1)

## Task Item COC(=O)C1=COC(OC2OC(CO)C(O)C(O)C2O)C2C(C)CC(=O)C12 (configuration not stated) : normalized growth beneath 1, strictly?
## Result false (0)

## Task Check if normalized growth falls below 1 for CC[C@@H](C(=O)C(C)[C@@H](O)[C@H](C)CCc1ccc(C)c(O)c1C(=O)O)C1OC(CC)(C2CC[C@](O)(CC)[C@H](C)O2)C[C@@H]1C (some centres not stated) .
## Result false (0)

###

procedure details: chemical genetic growth profiling, strain panel (AID 1159580);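 note: tested at 20 µM; growth read once vehicle control cultures reached saturation at 30 °C; 1 = growth at the plate median or of vehicle wells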
details: S. cerevisiae deletion strains, growth OD, locus YHR079C, strain IRE1, stronger effect = lower value
In all, about 5,500 compounds went through this assay and about 2,000 (36%) were called active. Not shown: some 18% with an inconclusive outcome. This is one part of the list.
Decision: normalized growth beneath 1 gives satisfied; normalized growth meeting or exceeding 1 gives not satisfied.

## Task Please check: normalized growth for `CC(C)c1ccc(COC(=O)Nc2ccc(CSc3ccc(Cl)cc3)o2)cc1` , strictly under 1 or not?
## Result satisfied

## Task Determine if CCCCC/C=C/CCC(=O)N[C@H]1[C@H](Oc2c3cc4cc2Oc2ccc(cc2Cl)[C@@H](O[C@@H]2O[C@H](CO)[C@@H](O)[C@H](O)[C@H]2NC(C)=O)[C@@H]2NC(=O)[C@H](NC(=O)[C@@H]4NC(=O)[C@H]4NC(=O)C(Cc5ccc(c(Cl)c5)O3)NC(=O)[C@H](N)c3ccc(O)c(c3)Oc3cc(O)cc4c3)c3ccc(O)c(c3)-c3c(OC4O[C@H](CO)[C@@H](O)[C@H](O)[C@@H]4O)cc(O)cc3[C@@H](C(=O)O)NC2=O)O[C@H](CO)[C@@H](O)[C@@H]1O (some centres undefined) shows normalized growth strictly lower than 1.
## Result satisfied

## Task # check: normalized growth < 1 for CNCCC(Oc1ccc(C(F)(F)F)cc1)c1ccccc1 (centres undefined)
## Result not satisfied

## Task Criterion: normalized growth strictly below 1. Is it met by `Cc1ccc(S(=O)(=O)NC(=O)Nc2ccc(Sc3ccccc3)nc2Sc2ccccc2)cc1` ?
## Result satisfied

## Task A record lists C[C@]12CCC(=O)C=C1C=CC1C2CC[C@@]2(C)C1CC[C@@]2(O)CCC(=O)O (some centres undefined) . Is its normalized growth below 1?
## Result not satisfied

## Task normalized growth under 1? Item: `O=C(Oc1cccc2[nH]ccc12)c1ccc(C(F)(F)F)cc1`
## Result satisfied

## Task Lab log: compare recorded normalized growth with 1; is it strictly lower for `CCCCCCCCCCCCCc1ccco1` ?
## Result satisfied

## Task normalized growth strictly < 1 for this compound? `COc1ccc(C(=O)O)cc1OC`
## Result satisfied

###

procedure details: chemical genetic growth profiling, strain panel (AID 1159580);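 note: tested at 20 µM; growth read once vehicle control cultures reached saturation at 30 °C; 1 = growth at the plate median or of vehicle wells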
details: S. cerevisiae deletion strains, growth OD, locus YLL041C, strain sdh2, stronger effect = lower value
Among all 5,500 compounds or so, about 2,000 (36%) were called active. Roughly 18% stayed inconclusive and do not appear here. The list shows a part of the results.
Provide the reported normalized growth of each item.
Write the number on its own, no unit after it.

## Task Entry `CCCCCCCCCCCCCc1ccco1` : reported normalized growth = ?
## Result 0.99

## Task Entry `Oc1cc(O)c2c(c1)O[C@H](c1cc(O)c(O)c(O)c1)[C@H](O)C2` has what normalized growth?
## Result 1.02

## Task Look up normalized growth for this compound: CN1C2CCC1CC(OC(c1ccccc1)c1ccccc1)C2 (configuration not stated)
## Result 0.995

## Task # query: normalized growth of entry C=C1CCC2[C@](C)(CO)[C@H](O)CC[C@@]2(C)[C@@H]1C/C=C1/C(=O)OC[C@H]1O (some centres not stated)
## Result 1.02

## Task normalized growth lookup needed for `COC(=O)c1cc(=O)c(O)c2c(O)c(O)ccc2c1` , thanks.
## Result 0.999

## Task Quick one: normalized growth of `O=C(O)CCCc1ccccc1` ?
## Result 0.989

## Task Given the entry `Cc1[nH]c2ccccc2c1CN(C)C` , report its measured normalized growth.
## Result 1.01

## Task # get_value(readout='normalized growth', item= CC1COc2c(N3CCN(C)CC3)c(F)cc3c(=O)c(C(=O)O)cn1c23 (configuration not stated) )
## Result 0.987

## Task Quick one: normalized growth for CC(=O)O[C@H]1C[C@@H](OC(C)=O)C(C)(C)C2CC(=O)[C@]3(C)C(CC[C@@]4(C)[C@H](C(=O)O)OC(=O)C5OC543)[C@]21C (some centres not stated) ?
## Result 0.989

## Task normalized growth lookup needed for `Oc1cc(O)c2c(c1)O[C@H](c1ccc(O)c(O)c1)[C@@H](O)C2` , thanks.
## Result 1.01

## Task Can you share its normalized growth? I mean this compound: `CCCCCCCCC(=O)NCc1ccc(O)c(OC)c1`
## Result 1

## Task Need normalized growth, item COc1ccc(OC)c(C(O)CNC(=O)CN)c1 (configuration not stated)
## Result 0.995

## Task I'd like to know its normalized growth. The compound in question is `OCCc1ccccc1`
## Result 0.984

## Task So what does the record say about normalized growth for `COc1cc(CNC(=O)CCCC/C=C/C(C)C)ccc1O` ?
## Result 0.987

## Task GET /values?readout=normalized growth&item= `Cc1ncc(CNC(=O)N(CCCl)N=O)c(N)n1`
## Result 1.01

## Task Sample `Nc1nc(=S)c2[nH]cnc2[nH]1` — what was its normalized growth?
## Result 0.984

## Task Requested read-out: normalized growth. Entry: `C#CCCCCCCCCCCCc1ccco1`
## Result 1
